B1: CDC25B (parent)
chain: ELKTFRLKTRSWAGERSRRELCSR

- Variants of: B1
- PROCEDURE_TEXT: protein stability index of a GFP-peptide fusion (GPS, HEK-293T) (PSI 1-6); higher = more stable;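 further: lentivirally expressed fusions sorted by FACS into six bins by GFP to DsRed ratio, PSI derived from sequencing read proportions per bin multiplied by bin number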
- RUN_PARAMETERS: c terminus: a fixed tail appended
REPORTED_ENDPOINT: protein stability index
The answer should be a number; do not append a unit.

# query: protein stability index of entry ELKTFRLKTRSWAGMRSRRELCSR [E15M]
2.67

# query: protein stability index of entry ELKTFRLKTRSWAGERSRRELCSS [R24S]
3.28

# query: protein stability index of entry ELKTFRLKTNSWAGERSRRELCSR [R10N]
3.13

# query: protein stability index of entry ELKTFRLKTRSWAGQRSRRELCSR [E15Q]
3.06

# query: protein stability index of entry ELKTFRLGTRSWAGERSRRELCSR [K8G]
2.4

# query: protein stability index of entry ELKTFRLETRSWAGERSRRELCSR [K8E]
3.2

# query: protein stability index of entry ELKTFRLKTRSWAGERSTRELCSR [R18T]
3.38

# query: protein stability index of entry ELKTFRLKTRSWAAERSRRELCSR [G14A]
2.42

# query: protein stability index of entry ELKTFRLKTRSWNGERSRRELCSR [A13N]
3.81

# query: protein stability index of entry ELKTFRLKTRSWAGERTRRELCSR [S17T]
3.33

# query: protein stability index of entry ELKTFRLKTRSWAGERVRRELCSR [S17V]
2.36

# query: protein stability index of entry ELKTCRLKTRSWAGERSRRELCSR [F5C]
3.09

# query: protein stability index of entry EFKTFRLKTRSWAGERSRRELCSR [L2F]
2.54

# query: protein stability index of entry ELKTFRLKTRMWAGERSRRELCSR [S11M]
2.42

# query: protein stability index of entry ELKTFRLKTGSWAGERSRRELCSR [R10G]
2.44

# query: protein stability index of entry ELKTFRLKTRSWAGERSRRELCSG [R24G]
2.59

# query: protein stability index of entry ELKTGRLKTRSWAGERSRRELCSR [F5G]
3.69

# query: protein stability index of entry ELKTFRLKTRSWAGERSRREECSR [L21E]
3.6

# query: protein stability index of entry ELKTFRLKTRSWAGERSRRELCSY [R24Y]
2.33

# query: protein stability index of entry ELKTFRLKTRSWAGERSRRELNSR [C22N]
4.04

# query: protein stability index of entry ELKTFRLKTRSWAGERSRRELISR [C22I]
3.33

# query: protein stability index of entry ELKGFRLKTRSWAGERSRRELCSR [T4G]
2.9

# query: protein stability index of entry ELKTFRLKTRSWAGERSRRELCDR [S23D]
4.21

# query: protein stability index of entry ELWTFRLKTRSWAGERSRRELCSR [K3W]
2.44

# query: protein stability index of entry ELKTFRLSTRSWAGERSRRELCSR [K8S]
3.55

# query: protein stability index of entry ELKTFRLKTRSWAGERSRKELCSR [R19K]
3.26

# query: protein stability index of entry ELKTFRLKTRSWAGERSRFELCSR [R19F]
2.49

# query: protein stability index of entry ELKTFRLKTRSWAGGRSRRELCSR [E15G]
2.68

# query: protein stability index of entry ELKTFRLKTRSWAGERSRRCLCSR [E20C]
2.72

# query: protein stability index of entry ELKTFRLKTRSWAGERSRREFCSR [L21F]
3.12

# query: protein stability index of entry YLKTFRLKTRSWAGERSRRELCSR [E1Y]
2.19

# query: protein stability index of entry ELITFRLKTRSWAGERSRRELCSR [K3I]
1.89

# query: protein stability index of entry ELKTFRLKTFSWAGERSRRELCSR [R10F]
2.54

# query: protein stability index of entry TLKTFRLKTRSWAGERSRRELCSR [E1T]
2.69

# query: protein stability index of entry ELKTFRLKHRSWAGERSRRELCSR [T9H]
3.29

# query: protein stability index of entry ELKTFRLKTRSWAGERSCRELCSR [R18C]
2.23

# query: protein stability index of entry ELVTFRLKTRSWAGERSRRELCSR [K3V]
2.67

# query: protein stability index of entry ELKTFRLKTRSWAGHRSRRELCSR [E15H]
3.02

# query: protein stability index of entry ELKTFRLKTRSLAGERSRRELCSR [W12L]
3.41

# query: protein stability index of entry ELKTFRLKTRSWAGERSRRELESR [C22E]
3.65

# query: protein stability index of entry ELKTFRLKTRLWAGERSRRELCSR [S11L]
2.61

# query: protein stability index of entry ELKTFRLKTRSQAGERSRRELCSR [W12Q]
3.49

# query: protein stability index of entry ELKTFRLKTISWAGERSRRELCSR [R10I]
2.8

# query: protein stability index of entry ELKTFRLKTRSWAGERSRRECCSR [L21C]
3.66

# query: protein stability index of entry ELSTFRLKTRSWAGERSRRELCSR [K3S]
3.62
